# Tested on: K4 kissing-loop RNA reporter
# experiment: apparent KD of K4 kissing-loop reporter; higher = weaker reporter binding
# test-context: Eterna round: R107; input ligand: FMN 200 uM
reported-property: apparent KD of K4 kissing-loop reporter (nM)

[[record]]
seq = "ACCCGUAGGAUACGGAGGUGUAAAUGGGUAUAGGAUAUCUAGAAAUAGAGAAGGAUACCAGUGAUGUUGGUUCCGUAUAUCUUAA"
assay_target = "K4 kissing-loop RNA reporter"
reported_property = "apparent KD of K4 kissing-loop reporter"
data_value = 272

[[record]]
seq = "AGAUUCGACACGGCCGCCACUUGUGGUGGAUUAUCCUAUGUCGAACAUGAGUGAUGUUCAUGUACAAGGACCGGGUGUUGAGUCU [KL-XTryp-B6 #analogue]"
assay_target = "K4 kissing-loop RNA reporter"
reported_property = "apparent KD of K4 kissing-loop reporter"
data_value = 476

[[record]]
seq = "AUUUAUUACAGAAGGAGCGUGUAUUUAUAAUCAUUUAUCUUAGCGAGUGAUGUUCGCUUUACACAGGUAGGUCGCUGUUUAUUUA [JR_Nu_ExcArginiB_Sub027]"
assay_target = "K4 kissing-loop RNA reporter"
reported_property = "apparent KD of K4 kissing-loop reporter"
data_value = 110

[[record]]
seq = "CGUGAGGACCAGAGGUGAUGUAUAGUAUCGCGAGGACCGGUACGGCCGCCACUCGUGAAGAGAAAGGAGUGAUGUUCCGUAAUGG [Kazoo C10]"
assay_target = "K4 kissing-loop RNA reporter"
reported_property = "apparent KD of K4 kissing-loop reporter"
data_value = 343

[[record]]
seq = "AAACAUCACUACUUCUUCGUCCUAGAAGACUAGGAUAUCAGGAAACUGAGAAGGAGUCUCUGCAGUGAUGUUGCAGCUAGGACGA [[K]'-[F2]'-[F1]'-[F1]-[F2]-[K1]-[K2]-[F]''_Design2]"
assay_target = "K4 kissing-loop RNA reporter"
reported_property = "apparent KD of K4 kissing-loop reporter"
data_value = 191

[[record]]
seq = "AAUAUAGUGAUGUUAUAUAAGAAGGAGUUACGAGGACCGGUACGGCCGCCACUCGAAACGAGUGAGGGUUUGGGAGAUUGGGCCC [SSTryptA.J]"
assay_target = "K4 kissing-loop RNA reporter"
reported_property = "apparent KD of K4 kissing-loop reporter"
data_value = 493

[[record]]
seq = "UGACAUUGCUCAGAUACCAGACAUGAGCAUCAGCCAUGUGCCAAAUACGUACAAAUAAAUGUCCCUUGGCAGCUGAGCAAUGUCU [TheoBX 12]"
assay_target = "K4 kissing-loop RNA reporter"
reported_property = "apparent KD of K4 kissing-loop reporter"
data_value = 66.7

[[record]]
seq = "GACGGGCAGUGAUGUUGCCGGUCUCUUGGACGAGGACCGGUACGGCCGCCACUCGAUCUGAUGCGGGAAUUGCAUCUUUUAAUAA [Raorbirabe]"
assay_target = "K4 kissing-loop RNA reporter"
reported_property = "apparent KD of K4 kissing-loop reporter"
data_value = 237

[[record]]
seq = "UAUCAGAUUACUGAUACCAGUCUAAAGACAGUGAUGUUGUCUGAUCGACCACGAUCAAAGGACCCUUGGCAGCAGUAUACUAUUC [Theo B SS t5]"
assay_target = "K4 kissing-loop RNA reporter"
reported_property = "apparent KD of K4 kissing-loop reporter"
data_value = 163

[[record]]
seq = "ACCUACGAUCACAAAAGUGAUUGUAGGAUCUAGGAUAUGCUGAAGAGCAGAAGGAGAGUGAUGUUCUCAUCUCACGAAAGUGAGA [whbob_Ex_FMNA__2th189]"
assay_target = "K4 kissing-loop RNA reporter"
reported_property = "apparent KD of K4 kissing-loop reporter"
data_value = 408

[[record]]
seq = "UGUGUUUACCUGACUCAGUGAUGUUGAGAAGGAGCGUGAGAAAGCACAGGUAGGUCGCUCAACCUAAAUUCAGGUGAGCACUAAA"
assay_target = "K4 kissing-loop RNA reporter"
reported_property = "apparent KD of K4 kissing-loop reporter"
data_value = 241

[[record]]
seq = "AGGACUCUUGUGGGUACGCAUCUAGCCGAUACCAGACUUCCAUAUGUCCCUUGGCAGCGGCAGUGAUGUUGUCGUUACGCCAUCA [theeternabot_exclusion_KL_Theo_A_34]"
assay_target = "K4 kissing-loop RNA reporter"
reported_property = "apparent KD of K4 kissing-loop reporter"
data_value = 140


====

# Test system: K4 kissing-loop RNA reporter;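 note: bound reporter read as fluorescence of individual clusters on recovered sequencing chips by microscopy, with normalized cluster intensities fitted with a binding model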
# experiment: apparent KD of K4 kissing-loop reporter; higher = weaker reporter binding
# test-context: Eterna round: R107; input ligand: theophylline 20 uM
Listed here are sequences together with their documented apparent KD of K4 kissing-loop reporter.
reported-property: apparent KD of K4 kissing-loop reporter (nM)

[[record]]
seq = "ACGCUGGUGAAUAACACUAGCGAAUAAUUCCGAGGACCGGUACGGCCGCCACUCGGCUAACUGCGAGUGAUGUUCGAUAAUAAAA [Mat - Mod of OpenEnded 3 - D10]"
data_value = 156

[[record]]
seq = "GUGAGGAGUGGUGUUGAUUAGGGAGCGGAAGGAGCGCCGAGGAAGGCAGGUAGGUCGCCGGAUUAUAGUGAUGUUAUGAAGAGGG [ExArg.K]"
data_value = 886

[[record]]
seq = "AACGCUGUGAAUAACACAGCGAAUAAUUCGCGAGGACCGGUACGGCCGCCACUCGCUAACUGCGAGUGAUGUUCGAUAAUAAAAU [Mat - Mod of OpenEnded 3 - D12]"
data_value = 237


====

# Test system: MS2 coat protein
# experiment: apparent KD of MS2 coat protein; designed switch direction (-1 OFF switch, 1 ON switch): -1; higher = weaker reporter binding
# test-context: input ligand: FMN 200 uM
Entries and their apparent KD of MS2 coat protein values follow.
reported-property: apparent KD of MS2 coat protein (nM)

[[record]]
seq = "GCCUGGGCAGGAUAUACAUGAGGAUCACCCAUGUCUGUUGACCGAACUCCGGAUAUAUGUAGAAGGGUCGCAGA [Eternabot (L1) Solution 100] (Eterna round: R97, puzzle: Exclusion 3)"
reported_property = "apparent KD of MS2 coat protein"
data_value = 55.1

[[record]]
seq = "UUGCAGUCGUCAGGAUAUAGUAUUACGGCCAUUUAUAUUUUCAUACAUGAGGAUCACCCAUGUCGCUAGAAGGGAUUAUCGAUU [salish99_ExNG2_r04_101] (Eterna round: R96, puzzle: Exclusion NG 2)"
reported_property = "apparent KD of MS2 coat protein"
data_value = 49.7

[[record]]
seq = "UGUUUACAUGAGGAUCACCCAUGUCAGGAUAUGAUAUAUAUAUGGAAACAUAUAUAUAUCAGAAGGGACUAGUG [Jieuxxlusion 1 - Jieux - Exclusion 1] (Eterna round: R97, puzzle: Exclusion 1)"
reported_property = "apparent KD of MS2 coat protein"
data_value = 156

[[record]]
seq = "AGAUAACAUGAGGAUCACCCAUGUGAGGAUAUUUACCCAAGAGCUUCGGCUCUCAGGUGAAGAAGGCACAUUGA [EX1 #58] (Eterna round: R97, puzzle: Exclusion 1)"
reported_property = "apparent KD of MS2 coat protein"
data_value = 316

[[record]]
seq = "CGAGCUCAUGUGAGGAUAUACCUAUGGAUACAUAGGUAGAAGGCACAUGAGGAUCACCCAUGUCCUUGAGCUCG [jl-bmx4-4.59 Eli mod] (Eterna round: R97, puzzle: Brourd's mod of Exclusion 4)"
reported_property = "apparent KD of MS2 coat protein"
data_value = 309

[[record]]
seq = "AUCAUGGGAGGAUAUCACCUAUGUUACAUGAGGAUCACCCAUGUGAGACUAAAUGACUGCUGAGAAGGCUCAACGC [Eternabot (Original) Solution 25] (Eterna round: R97, puzzle: Exclusion 5)"
reported_property = "apparent KD of MS2 coat protein"
data_value = 205

[[record]]
seq = "UUAUUAAUUAAGACUGCAAGAUCACAUGAGGAUCACCCAUGUCAGGAUAUCAGCUCGAUUAGAGCUGAGAAGGGACAAGCAGUC [ExNG3/15-A1] (Eterna round: R96, puzzle: Exclusion NG 3)"
reported_property = "apparent KD of MS2 coat protein"
data_value = 334

[[record]]
seq = "UCAAGAAUAGGAUAUACAACAUGCCCGCUUCUUUGCAUCGCACAUGAGGAUCACCCAUGUAGAAGGGUUCUCUA [Exclusion-2-#16] (Eterna round: R97, puzzle: Exclusion 2)"
reported_property = "apparent KD of MS2 coat protein"
data_value = 103

[[record]]
seq = "GUGAUCUAUCAUGUAAUGAACAUGAGGAUCACCCAUGUAGGCAGGUUUUUUGCUCGUCACAUAAUAAGAUAGAUCAC [Antenna 20 - Jieux - Sensor, turn-off variant 1] (Eterna round: R97, puzzle: Sensor, turn-off variant 1)"
reported_property = "apparent KD of MS2 coat protein"
data_value = 18.6

[[record]]
seq = "CCAUCACAUGAGGAUCACCCAUGUGAGGAUAUGUUUUUGGUGCGUAUAAAGCCUGGGAACAGAAGGUACAGGGA [Eternabot (L2) Solution 50] (Eterna round: R97, puzzle: Exclusion 1)"
reported_property = "apparent KD of MS2 coat protein"
data_value = 15.3

[[record]]
seq = "AAUUUUUGAUACCUUUAAUACAUGAGGAUCACCCAUGUUAUCGAGGAUAUGUAGAUGAAAUGAGAACAGAAGGCGAAGUAAGAG [JR_ExcNG3_Sub099] (Eterna round: R96, puzzle: Exclusion NG 3)"
reported_property = "apparent KD of MS2 coat protein"
data_value = 41.5

[[record]]
seq = "CAGGAACCAGCAGGAUAUGUGCGGCUGCUAACGUGAACCAACAUGAGGAUCACCCAUGUAGGCACGCAGAAGGGCUCAGCCUGC [Orgevebe] (Eterna round: R96, puzzle: Exclusion NG 2)"
reported_property = "apparent KD of MS2 coat protein"
data_value = 8.78

[[record]]
seq = "AAUUUACAUGAGGAUCACCCAUGUGAGGAUAUAUGUUUUAAUUUUUUUUUUUUUUUACAUAGAAGGCGCGUGAU [JR_Exc1_Sub046] (Eterna round: R97, puzzle: Exclusion 1)"
reported_property = "apparent KD of MS2 coat protein"
data_value = 51.7

[[record]]
seq = "UACAUGAGGAUCACCCAUGUUUUGUCGUGUAUGGUAUUUAUCUAGGAUAUCAAUUGAUUUAGUUAUGAGAAGGAGAAUAUUAAU [JMF's solution 62] (Eterna round: R96, puzzle: Exclusion NG 3)"
reported_property = "apparent KD of MS2 coat protein"
data_value = 27.2

[[record]]
seq = "AAUAACAAGCAGAUCCUAAACAUGAGGAUCACCCAUGUGUUCGUCUUGUAAAGUACUAUCACGAAAGUGAUAGUACA (Eterna round: R97, puzzle: Sensor, turn-off variant 1)"
reported_property = "apparent KD of MS2 coat protein"
data_value = 68.7

[[record]]
seq = "AUACUCGAAGGAUAUGUGUAAGAGUACAUGAGGAUCACCCAUGUCCUAAGCACUUGGACGGCAGAAGGUCGACUGU [Eternabot (L2) Solution 36] (Eterna round: R97, puzzle: Exclusion 5)"
reported_property = "apparent KD of MS2 coat protein"
data_value = 57.7

[[record]]
seq = "UCCUCACAUGAGGAUCACCCAUGUUAGGAUAUUUAAUAGCGCGAAAGACAGUUCUGUAAGAGAAGGAACUGGGC [Edarti] (Eterna round: R97, puzzle: Exclusion 1)"
reported_property = "apparent KD of MS2 coat protein"
data_value = 14.6

[[record]]
seq = "CAGUACUGAGGAUAUACAUGAGGAUCACCCAUGUGUGUGAAUUUUAUGUGGUCGUAAUGUAGAAGGCAGUACUG [JR_Ex3_Sub027] (Eterna round: R97, puzzle: Exclusion 3)"
reported_property = "apparent KD of MS2 coat protein"
data_value = 407

